Below, each entry is listed with its recorded Moisture absorption at 65% RH, Before.
# TEST_METHOD_NOTES: Dynamic vapour sorption (DVS) moisture uptake, method 3
# Format: physicochemical
# CONDITION_SET: before heat treatment

COMPOUND: O=C([O-])CCCCCCCNC(=O)c1ccccc1O.[Na+] [Batch 5]
Moisture absorption at 65% RH, Before (%): 1.98
--
COMPOUND: O=C([O-])CCCCCCCNC(=O)c1ccccc1O.[Na+] [Batch 1]
Moisture absorption at 65% RH, Before (%): 2.66
--
COMPOUND: O=C([O-])CCCCCCCNC(=O)c1ccccc1O.[Na+] [Batch 4]
Moisture absorption at 65% RH, Before (%): 0.83
--
COMPOUND: O=C([O-])CCCCCCCNC(=O)c1ccccc1O.[Na+] [Batch 2]
Moisture absorption at 65% RH, Before (%): 2.90

====

Below, each entry is listed with its recorded Moisture absorption at 65% RH.
# TEST_METHOD_NOTES: Dynamic vapour sorption (DVS) moisture uptake, method 3
# Format: physicochemical
# CONDITION_SET: heat treatment: None

COMPOUND: O=C([O-])CCCCCCCNC(=O)c1ccccc1O.[Na+] [Batch 2]
Moisture absorption at 65% RH: 2.90%
//
COMPOUND: O=C([O-])CCCCCCCNC(=O)c1ccccc1O.[Na+] [Batch 6]
Moisture absorption at 65% RH: 1.81%
//
COMPOUND: O=C([O-])CCCCCCCNC(=O)c1ccccc1O.[Na+] [Batch 8]
Moisture absorption at 65% RH: 2.51%
//
COMPOUND: O=C([O-])CCCCCCCNC(=O)c1ccccc1O.[Na+] [Batch 3]
Moisture absorption at 65% RH: 1.95%

Entry source: patent US20240294466A1
